target: Porcine DPP-IV (Sus scrofa); construct: purchased Sigma-Aldrich Germany; experiment: Assay of DPP-IV enzyme inhibitory activity (spectrophotometric, Gly-Pro-pNA cleavage); assay type: biochemical; settings: Porcine DPP-IV, Gly-Pro-pNA substrate, 30° C.; mean ± SD of three experiments except compound Nos. 133 & 139; read-out: IC50 (μM) Mean ± SD, inhibitory activity on DPP-IV enzyme activity
Sequence (P22411 whole entry): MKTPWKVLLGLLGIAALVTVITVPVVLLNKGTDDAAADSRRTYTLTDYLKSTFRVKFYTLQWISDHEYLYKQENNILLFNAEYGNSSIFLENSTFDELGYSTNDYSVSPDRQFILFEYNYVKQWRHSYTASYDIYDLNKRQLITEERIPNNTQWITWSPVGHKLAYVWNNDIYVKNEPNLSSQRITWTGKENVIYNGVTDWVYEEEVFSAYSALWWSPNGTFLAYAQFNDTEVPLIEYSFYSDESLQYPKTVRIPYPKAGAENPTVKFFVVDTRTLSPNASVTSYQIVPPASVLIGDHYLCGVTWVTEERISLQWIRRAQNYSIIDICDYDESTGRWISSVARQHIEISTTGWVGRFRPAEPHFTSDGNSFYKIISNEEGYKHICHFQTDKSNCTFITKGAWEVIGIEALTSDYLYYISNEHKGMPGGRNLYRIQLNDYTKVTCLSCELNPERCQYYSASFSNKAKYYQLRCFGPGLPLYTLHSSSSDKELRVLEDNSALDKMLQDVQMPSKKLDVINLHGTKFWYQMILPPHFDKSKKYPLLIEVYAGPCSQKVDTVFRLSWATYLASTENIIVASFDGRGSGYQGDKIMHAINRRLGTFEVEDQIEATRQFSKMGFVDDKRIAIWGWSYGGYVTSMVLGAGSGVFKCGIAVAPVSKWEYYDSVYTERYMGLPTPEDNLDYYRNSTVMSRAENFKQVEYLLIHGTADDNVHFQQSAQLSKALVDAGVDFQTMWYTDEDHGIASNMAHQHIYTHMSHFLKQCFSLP
Counter-ions that a name gives are not always drawn.
Quick reference for log10(IC50) among some compounds
Transform log10 | Measure IC50 | Unit µM

Examples from the recorded data:
> print(dat)
                                   compound                       target  experimental.value
1  N#CC1CSCN1C(=O)CN(N)C1CCN(CC(=O)NC2CCCCC2)CC1 (centres unmarked)  Porcine DPP-IV (Sus scrofa)               -0.30
2  N#CC1CCCN1C(=O)CN(N)C1CCN(CC(=O)Nc2ccc(Cl)cn2)CC1 (centres unmarked)  Porcine DPP-IV (Sus scrofa)                0.57
3  CC(C)NN(CC(=O)N1CSCC1C#N)C1CCC(NS(C)(=O)=O)CC1 (centres unmarked)  Porcine DPP-IV (Sus scrofa)                0.76
4  CC(C)(C)C(=O)NC1CCC(N(N)CC(=O)N2CSCC2C#N)CC1.O=C(O)C(F)(F)F (centres unmarked) [Compound No. 98]  Porcine DPP-IV (Sus scrofa)               -0.15
5  CC1CCC(N(CC(=O)N2CSCC2C#N)NC2CCN(C(C)C)CC2)CC1 (centres unmarked)  Porcine DPP-IV (Sus scrofa)                0.81
6  CC(C)(C)OC(=O)NNCC(=O)N1COCC1C#N (centres unmarked)  Porcine DPP-IV (Sus scrofa)                2.18

Input: I am curious: what log10(IC50) value has been reported for N#CC1CSCN1C(=O)CN(N)C1CCN(CC(=O)Nc2ncccn2)CC1 (centres unmarked) ?
Output: -0.84

Input: I am curious: what log10(IC50) value has been reported for CC(C)NN(CC(=O)N1CSCC1C#N)C1CCCCC1 (centres unmarked) [Compound No. 36, hydrochloride] ?
Output: 1.37

Taken from patent US20040106802A1.
